- Tested on: ACHN renal
- protocolDetails: NCI-60 one-dose screen, 48 h
- testSettings: 10 µM unless noted
The panel holds about 83,000 compounds, 20% with a hit somewhere; the sample as a whole holds those more often. Active and inactive are the calls of the source. Rule for the calls: active = growth percent below 10; inactive = the rest.
// one of 1 (yes) = active, 0 (no) = inactive, no free text

Take a look at these entries with their results.
# compound, assignedCategory
measured = [
    ("NC(N)=Nc1ccc(Oc2ccc(Nc3ccc(Cl)c(C(F)(F)F)c3)cc2)cc1", "0 (no)"),
    ("COc1cc(Cn2cc3c(c2)-c2onc(CN4CCOCC4)c2CC3)cc(OC)c1OC", "0 (no)"),
    ("CC(C)C[C@@H]1N[C@@]2(C(=O)Nc3ccccc32)[C@@H](c2ccc(F)cc2)[C@@H]1C(=O)c1ccc(O)cc1", "0 (no)"),
    ("CC1=N[C@@H]2CN(C(=O)OC(C)(C)C)C[C@@H]2n2c1cc1ccccc1c2=O", "0 (no)"),
    ("CCC(NC(c1cc2cccc3ccc4cccc1c4c32)c1nnnn1C(C)(C)C)C1CCCCC1 (configuration not stated)", "0 (no)"),
    ("NC(N)=Nc1ccc(Oc2cccc(Nc3ccc(Cl)c(C(F)(F)F)c3)c2)cn1", "1 (yes)"),
]

Prompt: Call for entry Cc1cc(S(=O)(=O)N(C)C)cc(NCC(=O)NC(=O)NCC(C)C)c1C :
Response: 0 (no)

###

- Tested on: KM12 colon
- protocolDetails: NCI-60 one-dose screen, 48 h (100 = growth as untreated, 0 = no growth, -100 = all killed)
- testSettings: 10 µM unless noted
Compounds without any hit were thinned out: in the full panel of roughly 83,000, 20% have a hit.
We begin with a simple list: items and their reported growth.
Express your answer in %, writing the number without its unit.

The cases that follow already have their growth on record.
# compound, dataValue
rows = [
    ("CCOC(=O)C(=O)CC(=O)N1C(=S)NC(=O)C1CC(C)C (stereo not given)", 98.8),
    ("C[C@@H](Nc1c(C#N)cnc2ccc(-c3cnc(Cl)c(NS(C)(=O)=O)c3)cc12)c1ccccc1", 15.1),
    ("NS(=O)(=O)c1ccc(Nc2nc(SCc3ccccc3)nc3ccccc23)cc1", 27.8),
    ("CCO/C=N/C1=C(C#N)C(c2ccc(F)cc2)c2sc3c(C)cccc3c2O1 (stereo not given)", 8.6),
    ("CCCn1cnc2c(c1=N)C(c1ccc(OC)cc1)c1sc3c(C)cccc3c1O2 (stereo not given)", 11.7),
]

Value of measured growth for the entry O=C(NNc1nc2cc(F)ccc2n2c(CO)ccc12)c1cnccn1 : 22.2

Value of measured growth for the entry CN1CCN(Cc2ccc(NC(=O)c3cncc(C#Cc4cnc5ccc(OCC6(C)COC6)nn45)c3)cc2C(F)(F)F)CC1 : -82.1

Value of measured growth for the entry COC(=O)c1[nH]nc2c1C1(C(=O)N(C)c3ccccc31)C(C#N)=C(N)O2 (stereo not given) : 103

Value of measured growth for the entry CCO/C=N/C1=C(C#N)C(c2ccc(Cl)cc2)c2sc3c(CC)cccc3c2O1 (stereo not given) : 15.3

Value of measured growth for the entry O=C1[C@H]2Cc3c([nH]c4ccccc34)[C@@H](c3ccc(Br)cc3)N2C(=O)CN1C1CCN(CC2CCCCC2)CC1 : -90.1
